Assay: in vivo
Conditions: CD2F1, mouse, in vivo, iv, 20 mg/kg
Observable: Tmax

Data request: Given Cc1cc(N(CCOS(C)(=O)=O)CCOS(C)(=O)=O)ccc1C=O , state its recorded Tmax.
Data returned: 5 min

###

Assay: in vivo
Details: CD2F1, mouse, iv, 20 mg/kg
Observable: CL renal (mL/min)
Answers are plain numbers, in mL/min.

Data request: Looking for the measured CL renal of Cc1cc(N(CCOS(C)(=O)=O)CCOS(C)(=O)=O)ccc1C=O , can you help?
Data returned: 0.4

###

Experiment: in vivo
Conditions: CD2F1, mouse, plasma, iv, 20 mg/kg
Observable: Tmax (min)
Numbers only, in min.

Data request: Given Cc1cc(N(CCO)CCO)ccc1C(=O)O , state its recorded Tmax.
Data returned: 10
